Measured activity change, listed per entry for reference.
measured_on: Hepatocyte nuclear factor 4-alpha (Homo sapiens) (UniProt P41235)
Sequence (P41235 whole entry, looked up): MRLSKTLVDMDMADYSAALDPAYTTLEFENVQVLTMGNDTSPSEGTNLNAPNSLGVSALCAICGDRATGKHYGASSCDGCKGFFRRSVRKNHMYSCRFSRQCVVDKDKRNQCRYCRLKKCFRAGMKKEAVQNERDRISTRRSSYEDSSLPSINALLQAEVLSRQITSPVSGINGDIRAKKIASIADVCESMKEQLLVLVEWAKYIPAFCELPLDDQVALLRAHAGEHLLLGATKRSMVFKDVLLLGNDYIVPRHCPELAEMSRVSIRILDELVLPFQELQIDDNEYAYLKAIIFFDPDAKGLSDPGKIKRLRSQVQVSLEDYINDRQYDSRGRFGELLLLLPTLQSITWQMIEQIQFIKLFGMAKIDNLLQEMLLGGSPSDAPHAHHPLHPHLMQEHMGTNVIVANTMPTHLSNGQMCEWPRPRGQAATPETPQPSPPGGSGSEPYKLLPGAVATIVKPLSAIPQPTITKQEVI
protocol_summary: change in binding of human HNF4A to DNA, primary screen, biochemical, fluorescence polarization, FITC-DNA (AID 1224865)
test_conditions: 1 h, at 10 µM, stronger effect = higher value
In all, about 360,000 compounds went through this assay and about 1,100 (0.31%) were called active. This is one part of a sample in which actives are shown more often than they occur.
endpoint_name: activity change

| molecule | measured_on | endpoint_name | result |
| --- | --- | --- | --- |
| Cc1cc(NC(=O)CSc2nnnn2-c2ccc(F)cc2)no1 | Hepatocyte nuclear factor 4-alpha (Homo sapiens) (UniProt P41235) | activity change | 2.72% (inactive) |
| Cc1ccc(S(=O)(=O)c2ccc(Cl)cc2)cc1S(=O)(=O)NC(C(=O)O)C(C)C (stereo unspecified) | Hepatocyte nuclear factor 4-alpha (Homo sapiens) (UniProt P41235) | activity change | -3.32% (inactive) |
| COc1cc(C)c(CN2CCN(C(=O)CCC(=O)c3ccc(C)s3)CC2)cc1OC | Hepatocyte nuclear factor 4-alpha (Homo sapiens) (UniProt P41235) | activity change | -0.43% (inactive) |
| CCOc1ccc(Oc2nc(C)cc(OC)n2)nn1 | Hepatocyte nuclear factor 4-alpha (Homo sapiens) (UniProt P41235) | activity change | 0.35% (inactive) |
| CC1CCCCC1NC(=O)C1CCCN1S(=O)(=O)c1cccc2nsnc12 (stereo unspecified) | Hepatocyte nuclear factor 4-alpha (Homo sapiens) (UniProt P41235) | activity change | -0.79% (inactive) |
| COc1cc(/C=C(\C#N)c2nc3c(s2)CC(C)CC3)ccc1O (stereo unspecified) | Hepatocyte nuclear factor 4-alpha (Homo sapiens) (UniProt P41235) | activity change | 74% (active) |
